System: OVCAR-8 ovarian
Experiment: NCI tumour cell line growth inhibition, 48 h
test.readout: TGI

Previously resolved entries follow.
compound	TGI
CS(=O)(=O)c1ccc(-c2cnc(NCc3ccco3)n3cnnc23)cc1	> 100 µM
Cc1cc2nc(CC(C(F)(F)F)C(F)(F)F)oc2cc1C	3.23 µM
O=C1NC2OC(CO)C(O)C(O)C2O1 (stereo not given)	> 100 µM
COc1ccc(N2C(=O)C3C=CC(n4[nH]c(=O)n(Cc5ccccc5)c4=O)CC3C2=O)cc1 (stereo not given)	> 100 µM
O=C1c2ccccc2-c2ccccc2C1(Cl)Cl	1.26 µM
Nc1nc(N)c2nc(CNc3ccc(C(=O)NC(CCNC(=O)c4ccccc4C(=O)O)C(=O)O)cc3)cnc2n1 (stereo not given)	> 100 µM
CN(C)C=Nc1c2c(nc3ccccc13)CCCC2	> 100 µM
CC(C)(N)C(=O)N[C@@H]1C(=O)N2[C@@H]1SC(C)(C)[C@@H]2C(=O)O	> 100 µM
COc1cc([C@@H]2c3cc4c(cc3[C@@H](NC(=O)c3ccc(OC(C)=O)cc3)C3COC(=O)[C@@H]32)OCO4)cc(OC)c1O (stereo not given in full)	18.5 µM

Next item in the queue.
Problem: // lookup TGI for `Cc1csc2c(=O)n(COCc3ccccc3)c(=O)[nH]c12`
Result: > 100 µM

###

System: HCC-2998 colon
Assay: NCI tumour cell line growth inhibition, 48 h
Entries annotated with measured GI50

Answered examples (3):
molecule	experimental.system	GI50
C=CCCCC(O)c1ccc(C(O)c2cnc3ccccc3c2)o1 (stereo not given)	HCC-2998 colon	19 µM
Cc1cc2nc3c4cc([N+](=O)[O-])ccc4n(CCN(C)C)c3nc2cc1C	HCC-2998 colon	0.683 µM
CCN(CC)CC(O)c1cc(-c2ccc(Cl)cc2)nc2cc(Cl)ccc12 (stereo not given)	HCC-2998 colon	1.67 µM

Problem: Dear colleague, I am looking for the recorded GI50 of the following molecule: `CNC(=O)c1cc(Oc2cccc3nc(NC(=O)Nc4ccc(F)cc4F)ccc23)ccn1`
Result: > 50 µM

Problem: For the molecule `COc1ccc(/C=C/C(=O)c2ccccc2)cc1OC` , what GI50 is on record?
Result: 14.2 µM

Problem: Look up GI50: `Cn1cc(-c2ccc3nnc(C(F)(F)c4ccc5ncccc5c4)n3n2)cn1`
Result: > 100 µM

Problem: Returns the measured GI50 for the input molecule. Input: `COc1cccc(/C=C2\CCc3ccccc3C2=O)c1`
Result: 15.8 µM

Problem: Would you mind telling me what GI50 value was observed for `CC/C(=C(/CC)c1ccc(O)cc1)c1ccc(O)cc1` ?
Result: 10.7 µM

Problem: Which measured GI50 value corresponds to `CN1CCN(Cn2nc(-c3cc(F)c(Cl)cc3Cl)oc2=S)CC1` ?
Result: 55.9 µM

Problem: Entry O=C(NC(Cc1ccccc1)C(=O)CCl)OCc1ccccc1 (stereo not given) has what GI50?
Result: 12.3 µM

###

System: SF-539 CNS
Test: NCI tumour cell line growth inhibition, 48 h
Catalogue of TGI readings, one per entry.

compound	TGI
CC(C)(N)C(=O)N[C@@H]1C(=O)N2[C@@H]1SC(C)(C)[C@@H]2C(=O)O	> 100 µM

Problem: Checklist item: TGI tested on SF-539 CNS, entry `CNC(=O)c1cc(Oc2ccc3nc(NC(=O)Nc4cc(C(F)(F)F)cc(C(F)(F)F)c4)sc3c2)ccn1` , value?
Result: 2.8 µM

Problem: Recall the recorded TGI for `COc1ccc(C2NC3=C(CCCC3)N2)cc1` with SF-539 CNS and state it.
Result: > 100 µM

Problem: Tell me reported TGI for `CC(C)(/C=N/O)/[N+]([O-])=C/c1ccccc1` , tested with SF-539 CNS.
Result: > 100 µM

Problem: What reported TGI corresponds to `COc1cc(O)c2c(=O)c(OC)c(-c3ccc(OC)c(OC)c3)oc2c1.[Sn]` on SF-539 CNS?
Result: > 100 µM

Problem: Item: `CCN(CC)CCNC(=O)C(Cl)=C1C(Cl)=C(Cl)C(Cl)=C1Cl` Test system: SF-539 CNS Read-out: TGI Value: ?
Result: 53.1 µM

Problem: # get_value(readout= TGI, system= SF-539 CNS) for `Cc1nc(-n2nc(-c3ccccc3)cc2-c2ccccc2)sc1C(/C=C/c1ccc([N+](=O)[O-])cc1)=N/NC(N)=S`
Result: > 100 µM

Problem: // fetch SF-539 CNS TGI for `COc1cc(-c2ccc(=O)oc2C#Cc2ccccc2)cc(OC)c1OC`
Result: > 100 µM

Problem: Entry `COC(=O)Cc1nn2c(nc1=O)sc1ccc3ccccc3c12` , system SF-539 CNS: what TGI was measured?
Result: > 100 µM

Problem: Request body: readout TGI, system SF-539 CNS, query `CCOC(=O)C1=C(O)c2ccc(OC)cc2C(=O)C1=O` . Return the value.
Result: > 100 µM

Problem: Item CN(CC1NCCCC1O)C12CC3CC(CC(C3)C1)C2 (stereo not given) with SF-539 CNS - TGI?
Result: > 100 µM

###

Examples of compounds with documented TGI follow.
System: HCT-15 colon
Assay: NCI tumour cell line growth inhibition, 48 h

compound	TGI
Brc1ccc(C[N+]23CN4CN(CN(C4)C2)C3)cc1	69 µM
Cc1ccc(S(=O)(=O)OC2CSSCC2OS(=O)(=O)c2ccc(C)cc2)cc1 (stereo not given)	22.5 µM
CCOP(=O)(OCC)C(C)(CC)/N=C(\N)NC#N (stereo not given)	> 100 µM
COc1ccc(N2C(=O)C(=O)C3(CCCCC3)C2=O)c(OC)c1OC	> 100 µM
COc1cc2nc3n(c(=O)c2cc1OC)CCCCC3	> 100 µM

Problem: What TGI value was documented for this compound, CCOC(=O)C1=C(C)N(c2ccc(Cl)cc2)C2(O)C=CC(Nc3ccc(Cl)cc3)=C3C(=O)N(c4ccccc4)C(=O)C312 (stereo not given) ?
Result: 16.3 µM

Problem: Entry `CC(=O)Nc1ccc(Cc2ccc3[nH]c(=O)cc(C)c3c2)cc1` has what TGI?
Result: > 100 µM

Problem: So what's the measured TGI for this one? CC(O)c1ccc(C(O)/C(=N\NC(=O)c2ccncc2)c2nc3ccc([N+](=O)[O-])cc3[nH]c2=O)cc1 (stereo not given)
Result: > 100 µM

Problem: Please report the recorded TGI for `O=C(NCCCc1cn[nH]c(=O)n1)c1cccc2nc3ccccc3nc12` .
Result: > 100 µM

Problem: What measured TGI goes with `CC1=C(C(=O)NCCCN(CCO)CCO)CC(C(=O)NCCCN(CCO)CCO)=C(C)N1` ?
Result: > 100 µM

###

Tested on: LOX IMVI melanoma
Assay: NCI tumour cell line growth inhibition, 48 h; in the data active means GI50 below about 0.43 µM; inactive means the rest
Give your call using only these classes: yes for active, no for inactive

cpd.smiles	category.label
Cn1c(=O)c(-c2c(Cl)cccc2Cl)cc2cnc(Nc3ccc(I)cc3)nc21	yes
COc1ccc(Nc2ncccc2C(=O)NCc2cn(Cc3cccc(Oc4ccccc4)c3)nn2)c(OC)c1	no

Could you now consider this next compound?
Problem: Hey, what did the test say about `O=C(Nc1ccc(Cl)cc1)c1cc2ccccc2cc1OP(=O)(O)O` ?
Result: no

###

Tested on: OVCAR-4 ovarian
Experiment: NCI tumour cell line growth inhibition, 48 h
Classification field: Yes = TGI at or over 20 µM; No = TGI under 20 µM.

Problem: Does TGI meet or surpass 20 µM for O=P(Nc1cccc(Cl)c1)(Oc1ccccc1)N(CCCl)CCCl (stereo unspecified) ?
Result: Yes

Problem: Would you say `Cc1cc(C)c(C(=O)/C(=C/c2ccccc2)c2ccccc2)c(C)c1` shows TGI at minimum 20 µM?
Result: Yes

Problem: Exam item: decide whether the reported TGI for c1ccc(N2N=NC3C4CC(C5c6ccccc6C45)C32)cc1 (stereo unspecified) is at least 20 µM.
Result: Yes

Problem: Does TGI meet or surpass 20 µM for `COc1ccc(OC)c(-c2cc(=O)c3cc4c(cc3[nH]2)OCO4)c1` ?
Result: Yes

Problem: Check this molecule for TGI at or above 20 µM: `ClCc1ccc(-c2ccc(Cn3cnc4c(Cl)ncnc43)cc2)cc1`
Result: No

Problem: Can Cc1ccc(S(=O)(=O)OC2CSSCC2OS(=O)(=O)c2ccc(C)cc2)cc1 (stereo unspecified) be said to have TGI at or above 20 µM?
Result: Yes

Problem: Record `COC(=O)[C@H](C)[C@@H]1CC[C@](C)(CCC2=C(C)CCCC2(C)C)OO1` ; criterion: TGI no lower than 20 µM. Met?
Result: Yes

Problem: Hi, just wondering whether O=C(O)C1C2CCC(O2)C1C(=O)NCc1cccnc1 (stereo unspecified) shows TGI of 20 µM or higher.
Result: Yes

Problem: Could you tell me if the measured TGI of `O=C(NCCCl)NCc1ccccc1` reaches 20 µM or more?
Result: Yes

Problem: Is it the case that O=C1C=CC(=O)[C@H]2C3C=CC(C4C3C3(Cl)C(Cl)=C(Cl)[C@]4(Cl)C3(Cl)Cl)[C@@H]12 (stereo partly specified) has TGI reaching or exceeding 20 µM?
Result: No

Problem: Kindly determine if TGI recorded for `O=C(O)CCCc1cc2c(s1)-c1cccc3cccc-2c13` is above or exactly 20 µM.
Result: Yes

Problem: Quick check: does `COc1cc(/C=C/c2ccc(S(N)(=O)=O)cc2)cc(OC)c1` have TGI greater than or equal to 20 µM?
Result: Yes
